These entries and their values trace back to paper PMC10084949.

targetOrSystem: ScSte2 + ScBar1 (Saccharomyces cerevisiae)
Construct: we cloned codon-optimized open reading frames (ORFs) of all 5 proteases and GPCRs; expressed in transfected cells; host or cells: S. cerevisiae yBB01 (from yTC370; pTDH3-ScSTE2, two pCCW12-ScBAR1 cassettes, genome-integrated)
assayText: Dose-response activation of ScSte2 biosensor strain secreting ScBar1 (two copies, yBB01), fluorescent readout
Assay type: cell-based
statedConditions: SEM
pEC50: −log10 of the molar value.
propertyName: pEC50

compound | observed
CSCC[C@H](NC(=O)[C@@H]1CCCN1C(=O)[C@H](CCC(N)=O)NC(=O)CNC(=O)[C@@H]1CCCN1C(=O)[C@H](CCCCN)NC(=O)[C@H](CC(C)C)NC(=O)[C@H](CCC(N)=O)NC(=O)[C@H](CC(C)C)NC(=O)[C@H](Cc1c[nH]c2ccccc12)NC(=O)[C@H](C)NC(=O)[C@@H](N)Cc1c[nH]c2ccccc12)C(=O)N[C@@H](Cc1ccc(O)cc1)C(=O)O [ScPep2A] | 5.00
CSCC[C@H](NC(=O)[C@@H]1CCCN1C(=O)[C@H](C)NC(=O)CNC(=O)[C@@H]1CCCN1C(=O)[C@H](CCCCN)NC(=O)[C@H](CC(C)C)NC(=O)[C@H](CCC(N)=O)NC(=O)[C@H](CC(C)C)NC(=O)[C@H](Cc1c[nH]c2ccccc12)NC(=O)[C@H](Cc1c[nH]cn1)NC(=O)[C@@H](N)Cc1c[nH]c2ccccc12)C(=O)N[C@@H](Cc1ccc(O)cc1)C(=O)O [ScPep10A] | 5.20
CSCC[C@H](NC(=O)[C@@H]1CCCN1C(=O)[C@H](CCC(N)=O)NC(=O)CNC(=O)[C@@H]1CCCN1C(=O)[C@H](CCCCN)NC(=O)[C@H](C)NC(=O)[C@H](CCC(N)=O)NC(=O)[C@H](CC(C)C)NC(=O)[C@H](Cc1c[nH]c2ccccc12)NC(=O)[C@H](Cc1c[nH]cn1)NC(=O)[C@@H](N)Cc1c[nH]c2ccccc12)C(=O)N[C@@H](Cc1ccc(O)cc1)C(=O)O [ScPep6A] | 5.50
CSCC[C@H](NC(=O)[C@@H]1CCCN1C(=O)[C@H](CCC(N)=O)NC(=O)CNC(=O)[C@@H]1CCCN1C(=O)[C@H](CCCCN)NC(=O)[C@H](CC(C)C)NC(=O)[C@H](CCC(N)=O)NC(=O)[C@H](CC(C)C)NC(=O)[C@H](Cc1c[nH]c2ccccc12)NC(=O)[C@H](Cc1c[nH]cn1)NC(=O)[C@H](C)N)C(=O)N[C@@H](Cc1ccc(O)cc1)C(=O)O [ScPep1A] | 5.90
CSCC[C@H](NC(=O)[C@@H]1CCCN1C(=O)[C@H](CCC(N)=O)NC(=O)CNC(=O)[C@@H]1CCCN1C(=O)[C@H](CCCCN)NC(=O)[C@H](CC(C)C)NC(=O)[C@H](CCC(N)=O)NC(=O)[C@H](CC(C)C)NC(=O)[C@H](Cc1c[nH]c2ccccc12)NC(=O)[C@H](Cc1c[nH]cn1)NC(=O)[C@@H](N)Cc1c[nH]c2ccccc12)C(=O)N[C@@H](C)C(=O)O [ScPep13A] | 5.10
CSCC[C@H](NC(=O)[C@@H]1CCCN1C(=O)[C@H](CCC(N)=O)NC(=O)CNC(=O)[C@@H]1CCCN1C(=O)[C@H](C)NC(=O)[C@H](CC(C)C)NC(=O)[C@H](CCC(N)=O)NC(=O)[C@H](CC(C)C)NC(=O)[C@H](Cc1c[nH]c2ccccc12)NC(=O)[C@H](Cc1c[nH]cn1)NC(=O)[C@@H](N)Cc1c[nH]c2ccccc12)C(=O)N[C@@H](Cc1ccc(O)cc1)C(=O)O [ScPep7A] | 5.40

----------
targetOrSystem: ScSte2 (Saccharomyces cerevisiae)
Construct: we cloned codon-optimized open reading frames (ORFs) of all 5 proteases and GPCRs; pTDH3-ScSTE2 genome-integrated)
assayText: cell-based
statedConditions: SEM
Listed here are compounds together with their documented EC50.

compound | EC50, nM
CSCC[C@H](NC(=O)[C@@H]1CCCN1C(=O)[C@H](C)NC(=O)CNC(=O)[C@@H]1CCCN1C(=O)[C@H](CCCCN)NC(=O)[C@H](CC(C)C)NC(=O)[C@H](CCC(N)=O)NC(=O)[C@H](CC(C)C)NC(=O)[C@H](Cc1c[nH]c2ccccc12)NC(=O)[C@H](Cc1c[nH]cn1)NC(=O)[C@@H](N)Cc1c[nH]c2ccccc12)C(=O)N[C@@H](Cc1ccc(O)cc1)C(=O)O [ScPep10A] | 126
CSCC[C@H](NC(=O)[C@@H]1CCCN1C(=O)[C@H](CCC(N)=O)NC(=O)[C@H](C)NC(=O)[C@@H]1CCCN1C(=O)[C@H](CCCCN)NC(=O)[C@H](CC(C)C)NC(=O)[C@H](CCC(N)=O)NC(=O)[C@H](CC(C)C)NC(=O)[C@H](Cc1c[nH]c2ccccc12)NC(=O)[C@H](Cc1c[nH]cn1)NC(=O)[C@@H](N)Cc1c[nH]c2ccccc12)C(=O)N[C@@H](Cc1ccc(O)cc1)C(=O)O | 158

----------
Listed here are compounds together with their documented EC50.
targetOrSystem: ScSte2 (Saccharomyces cerevisiae, UniProt D6VTK4)
Construct: we cloned codon-optimized open reading frames (ORFs) of all 5 proteases and GPCRs; pTDH3-ScSTE2 genome-integrated)
Sequence (D6VTK4 whole entry): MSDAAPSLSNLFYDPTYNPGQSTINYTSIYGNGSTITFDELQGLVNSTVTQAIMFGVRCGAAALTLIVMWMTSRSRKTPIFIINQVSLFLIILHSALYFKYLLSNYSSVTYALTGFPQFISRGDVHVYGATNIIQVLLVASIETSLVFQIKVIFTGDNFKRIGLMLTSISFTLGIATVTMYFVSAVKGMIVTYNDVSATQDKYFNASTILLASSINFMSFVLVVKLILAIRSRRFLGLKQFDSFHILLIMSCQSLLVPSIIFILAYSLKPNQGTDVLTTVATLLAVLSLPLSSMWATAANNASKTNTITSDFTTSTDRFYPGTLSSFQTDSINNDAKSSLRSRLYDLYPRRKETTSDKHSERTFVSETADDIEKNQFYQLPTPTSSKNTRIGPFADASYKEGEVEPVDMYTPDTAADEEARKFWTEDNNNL
assayText: cell-based
statedConditions: SEM

chemSmiles | targetOrSystem | readingUnit | EC50
CSCC[C@H](NC(=O)[C@@H]1CCCN1C(=O)[C@H](CCC(N)=O)NC(=O)CNC(=O)[C@H](C)NC(=O)[C@H](CCCCN)NC(=O)[C@H](CC(C)C)NC(=O)[C@H](CCC(N)=O)NC(=O)[C@H](CC(C)C)NC(=O)[C@H](Cc1c[nH]c2ccccc12)NC(=O)[C@H](Cc1c[nH]cn1)NC(=O)[C@@H](N)Cc1c[nH]c2ccccc12)C(=O)N[C@@H](Cc1ccc(O)cc1)C(=O)O | ScSte2 (Saccharomyces cerevisiae, UniProt D6VTK4) | nM | 79.4
CSCC[C@H](NC(=O)[C@@H]1CCCN1C(=O)[C@H](CCC(N)=O)NC(=O)CNC(=O)[C@@H]1CCCN1C(=O)[C@H](CCCCN)NC(=O)[C@H](CC(C)C)NC(=O)[C@H](CCC(N)=O)NC(=O)[C@H](CC(C)C)NC(=O)[C@H](C)NC(=O)[C@H](Cc1c[nH]cn1)NC(=O)[C@@H](N)Cc1c[nH]c2ccccc12)C(=O)N[C@@H](Cc1ccc(O)cc1)C(=O)O | ScSte2 (Saccharomyces cerevisiae, UniProt D6VTK4) | nM | 63.1

----------
targetOrSystem: ScSte2 + ScBar1 (Saccharomyces cerevisiae, UniProt D6VTK4)
Construct: we cloned codon-optimized open reading frames (ORFs) of all 5 proteases and GPCRs; expressed in transfected cells; host or cells: S. cerevisiae yBB01 (from yTC370; pTDH3-ScSTE2, two pCCW12-ScBAR1 cassettes, genome-integrated)
Sequence (D6VTK4 whole entry): as above
assayText: Dose-response activation of ScSte2 biosensor strain secreting ScBar1 (two copies, yBB01), fluorescent readout
Format: cell-based
statedConditions: SEM

compound | EC50, nM
CSCC[C@H](NC(=O)[C@H](C)NC(=O)[C@H](CCC(N)=O)NC(=O)CNC(=O)[C@@H]1CCCN1C(=O)[C@H](CCCCN)NC(=O)[C@H](CC(C)C)NC(=O)[C@H](CCC(N)=O)NC(=O)[C@H](CC(C)C)NC(=O)[C@H](Cc1c[nH]c2ccccc12)NC(=O)[C@H](Cc1c[nH]cn1)NC(=O)[C@@H](N)Cc1c[nH]c2ccccc12)C(=O)N[C@@H](Cc1ccc(O)cc1)C(=O)O [ScPep11A] | 2510
CSCC[C@H](NC(=O)[C@@H]1CCCN1C(=O)[C@H](CCC(N)=O)NC(=O)CNC(=O)[C@@H]1CCCN1C(=O)[C@H](CCCCN)NC(=O)[C@H](CC(C)C)NC(=O)[C@H](CCC(N)=O)NC(=O)[C@H](CC(C)C)NC(=O)[C@H](C)NC(=O)[C@H](Cc1c[nH]cn1)NC(=O)[C@@H](N)Cc1c[nH]c2ccccc12)C(=O)N[C@@H](Cc1ccc(O)cc1)C(=O)O | 25100
CC(C)C[C@H](NC(=O)[C@H](Cc1c[nH]c2ccccc12)NC(=O)[C@H](Cc1c[nH]cn1)NC(=O)[C@@H](N)Cc1c[nH]c2ccccc12)C(=O)N[C@@H](CCC(N)=O)C(=O)N[C@@H](CC(C)C)C(=O)N[C@@H](CCCCN)C(=O)N1CCC[C@H]1C(=O)NCC(=O)N[C@@H](CCC(N)=O)C(=O)N1CCC[C@H]1C(=O)N[C@@H](C)C(=O)N[C@@H](Cc1ccc(O)cc1)C(=O)O [ScPep12A] | 1000
